# Measurement target: LPAR3 (Homo sapiens (Human), UniProt Q9UBY5)
# Sequence (Q9UBY5 whole entry, species assumed): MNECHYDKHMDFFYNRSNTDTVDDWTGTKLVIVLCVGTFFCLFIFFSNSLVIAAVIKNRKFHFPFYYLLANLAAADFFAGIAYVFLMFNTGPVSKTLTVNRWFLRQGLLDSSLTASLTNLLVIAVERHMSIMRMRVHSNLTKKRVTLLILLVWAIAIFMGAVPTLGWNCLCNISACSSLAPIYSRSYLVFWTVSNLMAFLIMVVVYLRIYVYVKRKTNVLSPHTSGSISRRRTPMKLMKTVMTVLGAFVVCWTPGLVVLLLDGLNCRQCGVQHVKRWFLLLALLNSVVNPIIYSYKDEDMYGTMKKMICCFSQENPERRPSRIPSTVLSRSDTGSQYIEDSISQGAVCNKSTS
# Assay protocol: Calcium flux assay using FLIPR, LPAR3 antagonist activity
# Measurement conditions: antagonist mode, calcium flux
Quantity measured: IC50 (nM)

[a] CC(OC(=O)Nc1c(-c2ccc(-c3ccc(C4(C(=O)O)CC4)cc3)cc2)nnn1C)c1cccc(C(F)(F)F)c1 (racemic) [Example 4]
[b] C[C@@H](OC(=O)Nc1c(-c2ccc(-c3ccc(C4(C(=O)O)CC4)cc3)cc2F)nnn1C)c1ccccc1 [Example 11]
[c] C[C@@H](OC(=O)Nc1c(-c2ccc(-c3ccc(C4(C(=O)O)CC4)cc3)cc2)nnn1C)c1cccc(C(F)(F)F)c1 [Example 6]
[d] C[C@@H](OC(=O)Nc1c(-c2ccc(-c3ccc(C4(C(=O)NS(C)(=O)=O)CC4)cc3)cc2)nnn1C)c1ccccc1 [Example 12]
Ranking request: IC50, max to min, items above. // format: requested-order list of labels
b, d, a, c
(b: 27400 nM, d: 2310 nM, a: 279 nM, c: 132 nM)

---

# Measurement target: UniProt:Q9UBY5
# Assay protocol: Calcium flux assay using FLIPR, LPAR3 antagonist activity
# Type: cell-based
# Measurement conditions: at 30 μM
Quantity measured: inhibition at 30 µM (%)

Compound: C[C@@H](OC(=O)Nc1c(-c2ccc(C3CCC(CC(=O)O)CC3)cc2)nnn1C)c1ccccc1 (stereo partly shown)
Readout units: %
inhibition at 30 µM: 68
--
Compound: C[C@@H](OC(=O)Nc1c(-c2ccc(-c3ccc(CC(=O)O)cc3)cc2)nnn1C)c1ccccc1
Readout units: %
inhibition at 30 µM: 58.2
--
Compound: C[C@@H](OC(=O)Nc1c(-c2ccc(-c3ccc(C4(C(=O)O)CC4)cc3)cc2F)nnn1C)c1ccccc1
Readout units: %
inhibition at 30 µM: 62
--
Compound: C[C@@H](OC(=O)Nc1c(-c2ccc(-c3cccc(C4(C(=O)O)CC4)c3)cc2)nnn1C)c1ccccc1
Readout units: %
inhibition at 30 µM: 62

---

# Measurement target: human recombinant LPA1 Lysophospholipid receptor (Homo sapiens (Human))
# Sequence (Q92633 whole entry): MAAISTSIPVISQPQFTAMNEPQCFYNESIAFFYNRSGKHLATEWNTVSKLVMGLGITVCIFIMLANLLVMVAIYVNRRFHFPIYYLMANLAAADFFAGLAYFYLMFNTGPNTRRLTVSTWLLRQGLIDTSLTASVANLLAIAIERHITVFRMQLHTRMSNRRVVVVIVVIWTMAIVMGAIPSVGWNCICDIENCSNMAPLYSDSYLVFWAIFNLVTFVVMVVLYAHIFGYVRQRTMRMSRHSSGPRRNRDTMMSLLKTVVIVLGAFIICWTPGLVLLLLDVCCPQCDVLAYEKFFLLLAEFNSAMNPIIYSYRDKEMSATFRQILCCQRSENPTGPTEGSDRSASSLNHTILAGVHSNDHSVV
# Assay protocol: Calcium flux assay using FLIPR, LPAR1 antagonist activity
# Measurement conditions: ChemiScreen stable cell line, antagonist mode, calcium flux
# Description: Calcium Flux Assay Using Fluorometric Imaging Plate Reader (FLIPR) Cell Culture Conditions: The ChemiScreen Calcium-optimized stable cell line containing the human recombinant LPA1 Lysophospholipid receptor was purchased from Chemicon International, Inc./Millipore. […] Cells were harvested with trypsin-EDTA and counted using ViaCount reagent. […]
pIC50: −log10 of the molar value.
Quantity measured: pIC50

Compound: CC(OC(=O)Nc1c(-c2ccc(-c3ccc(C4(C(=O)O)CC4)cc3)cc2)nnn1C)c1cccc(C(F)(F)F)c1 (racemic) [Example 4]
Measured: 7.34

[I] C[C@@H](OC(=O)Nc1c(-c2ccc(-c3cccc(C4(C(=O)O)CC4)c3)cc2)nnn1C)c1ccccc1 [Example 9]
[II] CC(C)[C@@H](C)OC(=O)Nc1c(-c2ccc(-c3ccc(C4(C(=O)O)CC4)cc3)cc2)nnn1C [Example 7]
Which entry has a larger number for pIC50, I or II ? Choose, then provide that item's label.
II

---

# Measurement target: LPAR3 (Homo sapiens (Human))
# Assay protocol: Calcium flux assay using FLIPR, LPAR3 antagonist activity
# Measurement conditions: antagonist mode, calcium flux
Quantity measured: IC50

Here is how some molecules turned out for IC50.
Molecule: CC(C)[C@@H](C)OC(=O)Nc1c(-c2ccc(-c3ccc(C4(C(=O)O)CC4)cc3)cc2)nnn1C [Example 7]
Measured: > 30 µM

Molecule: C[C@@H](OC(=O)Nc1nnn(C)c1-c1ccc(-c2ccc(C3(C(=O)O)CC3)cc2)cc1)c1ccccc1 [Example 8]
Measured: > 30 µM

Recorded IC50 for C[C@@H](OC(=O)Nc1c(-c2ccc(Br)cc2)nnn1C)c1ccccc1 [Example 1] , please?
> 30 µM
